All figures here come from PubChem BioAssay (NCI).

# key: entry, value: TGI
- Test system: UACC-257 melanoma
- method_summary: NCI tumour cell line growth inhibition, 48 h
observable: TGI

compound	observable	measured_value
COc1ccc2oc(-c3ccc(OC)c(OC)c3OC)cc(=O)c2c1	TGI	> 100 µM
O=S(=O)(N=NC=C1c2ccccc2N(O)c2ccccc21)c1ccc(Cl)cc1	TGI	> 100 µM
CCOC(=O)C(Cc1ccccc1)NC(=O)c1[nH]cnc1/N=N/N(C)C (stereo not drawn)	TGI	> 100 µM
COC(=O)[C@]1(c2ccc(N(C)C)cc2OC)C[C@@H]2CCCN(CCc3c1[nH]c1ccccc31)C2	TGI	39.6 µM
COC(=O)C1=C(O)CCCC(C2CCCCC(=O)C2C(=O)OC)=C1 (stereo not drawn)	TGI	> 100 µM
COC(=O)[C@@H](C)[C@H]1CC[C@@](C)(CCC2=C(C)CC3C=C(C)CCC3C2(C)C)OO1 (stereo partly drawn)	TGI	7.61 µM
CC(=O)O[C@H]1C(=O)[C@@]2(C)[C@H]([C@H](OC(=O)c3ccccc3)[C@]3(O)C[C@H](OC(=O)[C@H](OC(=O)OC[C@H]4COC(C)(C)O4)[C@@H](NC(=O)c4ccccc4)c4ccccc4)C(C)=C1C3(C)C)[C@]1(OC(C)=O)CO[C@@H]1C[C@@H]2O	TGI	> 33.3 µM
COC1=C(C)C(=O)C2=C(C1=O)C1C3CC4=C(C(=O)C(OC)=C(C)C4=O)C(CNC(=O)C(C)O)N3C(C#N)C(C2)N1C (stereo not drawn)	TGI	0.0102 µM

---

- Test system: KM12 colon
- method_summary: NCI tumour cell line growth inhibition, 48 h
# key: entry, value: TGI
observable: TGI

compound	tested_target	measured_value
CCOC(=O)C1=C(C)N(NC(N)=O)C2(N)N(NC(N)=O)C(C)=C(C(=O)OCC)C12C(=O)OCC (stereo not given)	KM12 colon	> 100 µM
O=S(=O)(N=NC=C1c2ccccc2N(O)c2ccccc21)c1ccc(Cl)cc1	KM12 colon	> 100 µM
CC(C)=CC(=O)N[C@H]1CC[C@]2(C)C3CC[C@]4(C)C(C(C)N(C)C)=CCC4C3CCC2[C@H]1O (stereo not given in full)	KM12 colon	14.2 µM
C/C(CC(=O)Nc1ccccc1C)=N/NS(=O)(=O)c1ccc(C)cc1	KM12 colon	> 100 µM
COC(=O)[C@]1(c2cc3ccccc3[nH]2)CC2CN(C(=O)OCc3ccccc3)C1CC2=O (stereo not given in full)	KM12 colon	> 100 µM
N#Cc1cc(Sc2ccc(N)c(C#N)c2)ccc1N	KM12 colon	24.9 µM
CN(C)CCNC(=O)c1cccc2nc3c(C(=O)NCCN(C)C)cccc3nc12	KM12 colon	8.82 µM
C=CCC1(C(=O)OC(C)(C)C)C(OC)=C(C(=O)OC(C)(C)C)C2C1C(C(=O)OC(C)(C)C)=C(OC)C2(CC=C)C(=O)OC(C)(C)C (stereo not given)	KM12 colon	> 100 µM
CCOC(=O)C(=CNC(=S)N=Nc1c(O)[nH]c2ccccc12)C(=O)OCC	KM12 colon	> 100 µM
Cc1nc2ccc(F)cc2c(Cl)c1CCCl	KM12 colon	> 100 µM
C1CN(P2(N3CC3)=NP(N3CC3)(N3CC3)=NP(N3CC3)(N3CC3)=N2)CCO1 (stereo not given)	KM12 colon	> 100 µM
COC(=O)C(CC(=O)Nc1ccc(Cl)c(Cl)c1)C(=O)C(=O)Nc1ccc(Cl)c(Cl)c1 (stereo not given)	KM12 colon	> 100 µM
CC1=NOC(=O)/C1=C/c1ccc([N+](=O)[O-])cc1	KM12 colon	> 100 µM
CCCCCCCCCCCCCCCCCCNC(=S)/N=C/c1c(O)c2ccccc2[nH]c1=O	KM12 colon	30.9 µM
CCOC(=O)[C@@]1(C)CC(O)C(=O)N1C (stereo not given in full)	KM12 colon	> 100 µM
COc1ccc2c(c1OC)C(C(Cl)(Cl)Cl)N1CCc3cc4c(cc3C1=C2)OCO4 (stereo not given)	KM12 colon	20.3 µM
CC(C(=O)c1ccccc1)C1(O)C(=O)Nc2ccc(Cl)cc21 (stereo not given)	KM12 colon	> 100 µM
C=C1C(=O)O[C@H]2[C@H]1CC/C(Cn1cc(-c3ccc(F)cc3)nn1)=C\CC[C@@]1(C)O[C@@H]21	KM12 colon	3.43 µM
COc1ccc(NC(C(N)=O)c2cc3cc(Br)ccc3nc2Cl)cc1 (stereo not given)	KM12 colon	> 100 µM
Cc1c(C)c(C)c(-n2c(=O)n(C)c(=O)n2-c2cc(C(C)(C)C)cc(C(C)(C)C)c2O)c(C)c1C	KM12 colon	> 45.3 µM

---

- Tested on: MALME-3M melanoma
- method_summary: NCI tumour cell line growth inhibition, 48 h
# key: entry, value: GI50

compound	GI50
Clc1ccc2nc(CI)c(CI)nc2c1	1750 nM
CC(=O)/C=C/C1=C(c2csc3ccccc23)c2ccccc2CC1	21700 nM
O=c1oc2cc(OC/C(=N/O)c3ccc(F)cc3)ccc2c2ccccc12	19600 nM
COC1=CC(c2ccc[nH]2)=N/C1=C\c1[nH]c(C)c(CC(=O)OCc2ccccc2)c1C	578 nM
O=C(/C=C1\C(=O)N(Cc2ccccc2)c2ccccc21)c1ccc(OCCN2CCCCC2)cc1	1710 nM
COc1ccc(/C=C2\SC(=Nc3ccccc3)NC2=O)cc1	19000 nM
CCC1(OC(=O)CN)C(=O)OCc2c1cc1n(c2=O)Cc2cc3ccccc3nc2-1 (stereo unspecified)	196 nM
Nc1nc2cc(CC[C@H]3C[C@@H](n4ccc5c(N)ncnc54)[C@H](O)[C@@H]3O)ccc2cc1Br	7420 nM
CC(C)=CC(=O)N[C@H]1CC[C@]2(C)C3CC[C@]4(C)C(C(C)N(C)C)=CCC4C3CCC2[C@H]1O (stereo partly specified)	1890 nM
CC(C)c1cccc(O)c(=O)c1	9.77 µg/mL
Cc1cc(OCCOCCC(F)(F)P(=O)(O)O)ccc1CCc1cnc2c(N)nc3cc(CCC(=O)O)ccc3c2c1	> 100000 nM

---

- Test system: SF-539 CNS
- method_summary: NCI tumour cell line growth inhibition, 48 h
observable: TGI

molecule	measured_value
CCOC(=O)C1=C(C)N(NC(N)=O)C2(N)N(NC(N)=O)C(C)=C(C(=O)OCC)C12C(=O)OCC (stereo not given)	> 100 µM
CCOC(=O)C(Cc1ccccc1)NC(=O)c1[nH]cnc1/N=N/N(C)C (stereo not given)	> 100 µM
COc1ccc(NC(C(N)=O)c2cc3cc(Br)ccc3nc2Cl)cc1 (stereo not given)	> 100 µM
C#C[C@@]1(O)CCCC2=CC3(CC[C@]21C)SCCS3	> 100 µM
CCN(CC)c1ccc(/C=C2\CCc3ccc([N+](=O)[O-])cc3C2=O)cc1	7.09 µM

---

- Tested on: SN12C renal
- method_summary: NCI tumour cell line growth inhibition, 48 h
observable: TGI

compound	measured_value
COC(=O)C(CC(=O)Nc1ccc(Cl)c(Cl)c1)C(=O)C(=O)Nc1ccc(Cl)c(Cl)c1 (stereo unspecified)	> 100 µM
Cc1cc(OCCOCCC(F)(F)P(=O)(O)O)ccc1CCc1cnc2c(N)nc3cc(CCC(=O)O)ccc3c2c1	> 100 µM
Cc1cc2c(cc1C)C(=O)C1(C2)Cc2cc3c(cc2C1=O)CCC3 (stereo unspecified)	> 100 µM
S=c1nc(N/N=C/c2cccs2)c2cn[nH]c2[nH]1	> 100 µM
CC(=O)/C=C/C1=C(c2csc3ccccc23)c2ccccc2CC1	> 100 µM
O=C(c1ccco1)c1c(C(F)(F)F)n([O-])c2cc(C(F)(F)F)ccc2[n+]1=O	3.45 µM
C[n+]1c2ccccc2nc2ccccc21	3.41 µM
O=P(Nc1ccccc1)(Oc1ccccc1)N(CCCl)CCCl (stereo unspecified)	> 100 µM
O=CN1N=C(c2cccc(Nc3ccnc4cc(Cl)ccc34)c2)CC1c1ccccc1 (stereo unspecified)	> 54.3 µM
COC(=O)C1CCC(=O)N1C(c1cc(OC)c(OC)c(OC)c1)c1cccc2ccccc12 (stereo unspecified)	> 100 µM
CC(C)C(=O)/C=C/S/C=C/C(=O)C(C)C	29.6 µM
Cc1cc(S(=O)(=O)Nc2nncn2-c2ccc(Cl)cc2)c(S)cc1Cl	> 10 µM
C=CCOC(OCC=C)/C(Br)=C/C	> 100 µM
O=C(O)/C(=C\c1ccc(O)cc1)c1cccc2ccccc12	> 100 µM
COC(=O)c1c2c(cc3c1CC1(Cc4cc5c(c(C(C)=O)c4C1)CCCC5)C3)CCCC2 (stereo unspecified)	> 100 µM
Cc1nc(/C=C2\C(=O)C=Cc3ccccc32)c(O)o1	> 100 µM
O=C(O)c1c2c(cc3c1CC1(Cc4cc5c(cc4C1=O)CCC5)C3)CCC2 (stereo unspecified)	> 100 µM
Cc1ccc(S(=O)(=O)OC(COC(=O)c2ccccc2)C(OS(=O)(=O)c2ccc(C)cc2)C(OS(=O)(=O)c2ccc(C)cc2)C(COC(=O)c2ccccc2)OS(=O)(=O)c2ccc(C)cc2)cc1 (stereo unspecified)	> 100 µM
NC(=O)c1cccc(OCC(O)CO)c1 (stereo unspecified)	> 100 µM
CCCCCC[C@@H](C)NC(=O)c1ccc(Nc2nc3ccccc3c3occc23)cc1	> 100 µM
N#CC(C#N)=Cc1ccc(CP(=O)(O)O)cc1	> 100 µM
